- assay_explanation: Quantitative High-Throughput drug screen in 47 multiple myeloma cell lines against the NCATS MIPE library collection: L363_DSMZ cell viability assay (AID 1918984); also: nearly all actives have a fitted effect of over 40% in size
- stated_conditions: L363 myeloma viability, CellTiter-Glo ATP luminescence, 48 h; series mostly up to 45.8 µM
Inconclusive results are not listed. Calls of active or inactive are those of the source. Calls follow the shape of the dose curve; as a rule, active = well fitted cell-killing curve with a large enough effect; inconclusive = small, poorly fitted or top-dose-only effect, or effect the other way; inactive = no such curve, though single readings can be large or run the other way.
// one of TRUE = active, FALSE = inactive, no free text

# count of solved cases: 3
CCCc1nc(C(C)(C)O)c(C(=O)O)n1Cc1ccc(-c2ccccc2-c2nn[nH]n2)cc1; FALSE
O=C(CCCCCCC(=O)Nc1cccnc1)NO; TRUE
CN(CC(=O)N(Cc1ccc(C2CCCCC2)cc1)c1ccc(C(=O)O)c(O)c1)S(=O)(=O)c1c(F)c(F)c(F)c(F)c1F; TRUE

Exam item: Tell me the recorded outcome of this test for `C=CC(=O)Nc1ccc2ncnc(Nc3ccc(OCc4cccc(F)c4)c(Cl)c3)c2c1` .
Marked response: TRUE

Exam item: Called result for OCC(O)C(O)C(O)CO (stereo not drawn)
Marked response: FALSE

Exam item: What call does the record list for CCCCCCCCCCCC(CC1OC(=O)C1CCCCCC)OC(=O)C(CC(C)C)NC=O (stereo not drawn) ?
Marked response: FALSE

Exam item: What did this assay record as the result for `CN(C)c1ccc(C(=O)NCCCCCCC(=O)NO)cc1` ?
Marked response: TRUE

Exam item: Outcome logged for `COc1cc(OC)cc(-c2ccc3ncc4ccc(=O)n(-c5ccc(N6CCNCC6)c(C(F)(F)F)c5)c4c3c2)c1` in this assay:
Marked response: TRUE

Exam item: Please share the test call associated with `O=C(c1ccc(F)cc1)N1CCC[C@H](c2nc(-c3ccc(F)cc3)no2)C1` .
Marked response: FALSE

Exam item: Tell me the assay call for `CCCCCCCCCCCCc1ccc(S(=O)(=O)Nc2nncs2)cc1` please.
Marked response: FALSE

Exam item: Answer briefly: the call reported for `CC(C)Oc1ccc(C(=O)N[C@H](CNC(=O)CN(C)C)Cc2ccc(-c3cn4cccc([C@H](C)O)c4n3)cc2)cc1Cl` in this assay.
Marked response: TRUE

Exam item: // return assay outcome for C=C[C@@H]1CN2CCC1C[C@H]2[C@H](O)c1ccnc2ccc(OC)cc12 (stereo partly drawn)
Marked response: FALSE

Exam item: Status in this test for `Oc1ccc(-c2ccc(-c3cc(Nc4cccc(CNC5CC5)c4)n[nH]3)cc2)c(O)c1` ?
Marked response: TRUE

Exam item: What outcome does the record of this test show for `CC(C)NC[C@@H](C(=O)N1CCN(c2ncnc3c2[C@H](C)C[C@H]3O)CC1)c1ccc(Cl)cc1` ?
Marked response: TRUE

Exam item: What call does the record list for `COc1cccc2c1C(=O)c1c(O)c3c(c(O)c1C2=O)C[C@@](O)(C(=O)CO)C[C@@H]3O[C@H]1C[C@H](N)[C@@H](O)[C@H](C)O1` ?
Marked response: TRUE

Exam item: Which outcome did this test record for the compound OCCNC1CCCc2c1[nH]c1ccc(-c3ccccc3)cc21 (stereo not drawn) ?
Marked response: TRUE

Exam item: Tell me the recorded outcome of this test for `CC(C)(C)[N+]([O-])=Cc1ccc(S(=O)(=O)O)cc1S(=O)(=O)O` .
Marked response: FALSE

Exam item: Per the records of this test, what outcome belongs to `NC(=O)N1CCC(CC(=O)N2CCC([C@H]3c4ncc(Br)cc4CCc4cc(Cl)cc(Br)c43)CC2)CC1` ?
Marked response: TRUE

Exam item: Give the logged outcome of this assay for the following compound: `COC[C@H](NC(=O)c1cnc(C)s1)C(=O)N[C@@H](COC)C(=O)N[C@@H](Cc1ccccc1)C(=O)[C@@]1(C)CO1`
Marked response: TRUE

Exam item: Call for entry `CC(=O)O[C@H]1C[C@@H]2CC[C@H]3[C@H]4C[C@H]([N+]5(C)CCCCC5)[C@@H](OC(C)=O)[C@@]4(C)CC[C@@H]3[C@@]2(C)C[C@H]1[N+]1(C)CCCCC1` :
Marked response: FALSE

Exam item: What did the test return for `C[C@H](CCC(=O)O)[C@H]1CC[C@H]2[C@@H]3[C@H](O)C[C@@H]4C[C@H](O)CC[C@]4(C)[C@@H]3CC[C@]12C` ?
Marked response: FALSE

Exam item: Record request — test call for `O=C(Nc1cccc(Nc2ncc(Br)c(NCCc3cnc[nH]3)n2)c1)N1CCCC1`
Marked response: FALSE

Where do these numbers come from? They come from PubChem BioAssay (NCATS).
